assayedSystem: T1, human PD-L1 on cells (PHA-activated human T cells); PD-L1-transfected CHO-S cells; A375 melanoma cells; … (human, UniProt Q9NZQ7 19-290)
T1 construct: whole, on cells; also called PD-L1 expressing T cells; PD-L1 expressing CHO-S cells
T1 sequence (Q9NZQ7 19-290): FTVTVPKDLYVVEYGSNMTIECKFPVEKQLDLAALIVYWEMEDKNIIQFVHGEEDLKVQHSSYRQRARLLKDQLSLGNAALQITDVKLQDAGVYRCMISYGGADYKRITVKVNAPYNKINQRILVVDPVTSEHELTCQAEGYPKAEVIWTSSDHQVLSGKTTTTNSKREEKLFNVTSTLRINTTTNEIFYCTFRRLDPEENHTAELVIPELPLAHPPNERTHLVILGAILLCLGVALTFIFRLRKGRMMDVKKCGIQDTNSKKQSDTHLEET
assayProcedure: flow cytometry on PHA-activated human CD3+ T cells, FITC-labeled anti-human IgG Fcγ, MFI
Reported EC50 (read off the curve) is given for each of the following binders.

Solved entries:
{"binder": "PL3 (full-length, N297A mutant human IgG1) (antibody, V domains shown) VH: QVQLVQSGAEVKKPGSSVKVSCKASGGTFSSYTISWVRQAPGQGLEWMGRIIPILGIANYAQKFQGRVTITADKSTSTAYMELSSLRSEDTAVYYCARSRDGYSFGAFDIWGQGTLVTVSS VL: QSVVTQPPPVSGAPGQRVTISCTGSSSNIGAGYDVHWYQQLPGTAPKLLIYGNSNRPSGVPDRFSGSKSGTSASLAITGLQAEDEADYYCQSYDSSLSAPVVFGGGTKLTVLG", "reportedValue": "~0.04 µg/mL"}
{"binder": "PL12 (full-length, N297A mutant human IgG1) (antibody, V domains shown) VH: QVQLVQSGAEVKKPGSSVKVSCKASGGTFSSYAISWVRQAPGQGLEWMGRIIPILGIANYAQKFQGRVTITADKSTSTAYMELSSLRSEDTAVYYCARGIGSYSFGAFDIWGQGTMVTVSS VL: QSVLTQPPSVSGAPGQRVTISCTRSSSNIGAGHDVHWYQQLPGTAPKLLIYGNSNRPSGVPDRFSGSKSGTSASLAITGLQAEDGADYYCQSYDSSLTGVVFGGGTKLTVLG", "reportedValue": "~0.03 µg/mL"}
{"binder": "PL2 (full-length, N297A mutant human IgG1) (antibody, V domains shown) VH: EVQLVQSGGGLVKPGGSLRLSCAASGFTFSSYTMNWVRQAPGKGLEWVSSISSGSDYLYYADSVKGRFTISRDNAKNSLYLQMNSLRAEDTAVYYCARNELRWYPQAGAFDIWGQGTMVTVSS VL: QSVVTQPPSMSAAPGQNVTISCSGSSSYIESSYVSWYQQLPGTAPRLLIYDDDMRPSGIPDRFSGSKSGTSATLAITGLQTGDEADYYCEIWDSGLGGVFGGGTKLTVLS", "reportedValue": "~0.005 µg/mL"}

Sample PL15 (full-length, N297A mutant human IgG1) (antibody, V domains shown) VH: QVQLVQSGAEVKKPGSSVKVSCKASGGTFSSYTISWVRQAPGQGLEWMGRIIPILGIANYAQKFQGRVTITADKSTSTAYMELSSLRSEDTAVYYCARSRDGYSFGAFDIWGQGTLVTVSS VL: QSVLTQPPSVSGAPGQRVTISCTGYSSNIGAGYDVHWYQHLPGTAPKLLIYGNSNRPSGVPDRFSGSKSGTSASLAITGLQAEDEADYYCQSYDNSLSVSVFGGGTKLTVLG — what was its EC50 (read off the curve)?
~0.03 µg/mL

Sample anti-PD-L1 ref-2 (IgG2) (antibody, V domains shown) VH: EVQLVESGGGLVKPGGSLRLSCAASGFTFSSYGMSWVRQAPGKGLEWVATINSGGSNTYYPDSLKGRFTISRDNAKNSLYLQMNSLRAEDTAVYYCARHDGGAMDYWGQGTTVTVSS VL: DIQMTQSPSSLSASVGDRVTITCRASESIYSYLAWYQQKPGKAPKLLVYNTKTLPEGVPSRFSGSGSGTDFTLTISSLQPEDFATYYCQHHYGTPPWTFGQGTRLEIK — what was its EC50 (read off the curve)?
~0.005 µg/mL

// data source = patent US20190225691A1
